biological target: SARS-CoV-2 M^pro (Severe acute respiratory syndrome coronavirus 2, UniProt P0DTD1); assay: biochemical; format: biochemical; details: Table 2; M^pro […], 37mer substrate 2.0 μM; mean ± SD, n ≥ 2; read-out: IC50
pIC50: −log10 of the molar value.
Response key: class 1 means pIC50 >= 5; class 0 means pIC50 < 5.

1. CC1(C)[C@H](C(=O)OCc2ccccc2F)N2C(=O)[C@@H](NC(=O)COc3ccccc3)[C@H]2S1(=O)=O [Compound 20a] : class 1
2. CCOC(=O)[C@@H]1N2C(=O)[C@@H](NC(=O)COc3ccccc3)[C@H]2S(=O)(=O)C1(C)C [Compound 20p] : class 1
3. COc1ccc(COC(=O)[C@@H]2N3C(=O)[C@@H](NC(=O)COc4ccccc4)[C@H]3S(=O)(=O)C2(C)C)cc1 [Compound 20k] : class 0
4. CC1(C)[C@H](C(=O)OCc2cc(F)c(F)c(F)c2)N2C(=O)[C@@H](NC(=O)COc3ccccc3)[C@H]2S1(=O)=O [Compound 20f] : class 0

# evaluate next
Textbook exercise: given the entry C#CCOC(=O)[C@@H]1N2C(=O)[C@@H](NC(=O)COc3ccccc3)[C@H]2S(=O)(=O)C1(C)C [Compound 20q] , state whether its pIC50 is greater than or equal to 5.
class 1

###

As shown below, each of these compounds has a reported IC50 value.
target: SARS-CoV-2 M^pro (Severe acute respiratory syndrome coronavirus 2, UniProt P0DTD1); experiment: biochemical; format: biochemical; details: Table 2; M^pro […], 37mer substrate 2.0 μM; mean ± SD, n ≥ 2; read-out: IC50
Lab book: enter the figure in µM, no units written.

As a guide, the following entries are already answered.
1) CC1(C)[C@H](C(=O)OCc2cc(C(F)(F)F)cc(C(F)(F)F)c2)N2C(=O)[C@@H](NC(=O)COc3ccccc3)[C@H]2S1(=O)=O [Compound 20h] : 35.3
2) CC1(C)[C@H](C(=O)OCc2ccc(C(F)(F)F)o2)N2C(=O)[C@@H](NC(=O)COc3ccccc3)[C@H]2S1(=O)=O [Compound 20m] : 10.2
3) COC(=O)[C@@H]1N2C(=O)[C@@H](NC(=O)COc3ccccc3)[C@H]2S(=O)(=O)C1(C)C [Compound 20o] : 7.9
4) CC1(C)[C@H](C(=O)OCc2cccc([N+](=O)[O-])c2)N2C(=O)[C@@H](NC(=O)COc3ccccc3)[C@H]2S1(=O)=O [Compound 20i] : 13.3

Query compound follows.
Look up IC50 for this compound: CC1(C)[C@H](C(=O)OCc2ccc(F)cc2)N2C(=O)[C@@H](NC(=O)COc3ccccc3)[C@H]2S1(=O)=O [Compound 20c]
7.4

###

target: SARS-CoV-2 M^pro (Severe acute respiratory syndrome coronavirus 2); assay: biochemical; type: biochemical; details: Table 2; M^pro 0.15 μM, 37mer substrate 2.0 μM; mean ± SD, n ≥ 2; read-out: IC50
QUANTITY_KIND: pIC50
Give only the number. pIC50 is defined as minus log10 of concentration in molar units.

Request - read-out pIC50 | tested on SARS-CoV-2 M^pro (Severe acute respiratory syndrome coronavirus 2) | molecule Cc1cc(COC(=O)[C@@H]2N3C(=O)[C@@H](NC(=O)COc4ccccc4)[C@H]3S(=O)(=O)C2(C)C)no1 [Compound 20n]
5.05

Source: paper PMC9115881
